Listed molecules paired with reported IC50
# Tested on: U87MG pLVX-IDH2 R140Q-neo cells
# ASSAY_METHOD_TEXT: U87MG pLVX-IDH2 R140Q-Neo cell based assay (2-HG in media by LC-MS)
# CONDITION_SUMMARY: Homo sapiens, U-87 MG, 48 hours
EXPERIMENTAL_READOUT: IC50

1) CC(C)Nc1nc(Nc2ccnc(C(F)(F)F)c2)nc(C(C)(C)C)n1: 100 to 1000 nM
2) CC(C)Nc1nc(Nc2ccnc(C(F)(F)F)c2)nc(C2CCCC2)n1: 100 to 1000 nM
3) CC(C)Nc1nc(Nc2ccnc(C(F)(F)F)c2)nc(C2CCCC(=O)C2)n1 (centres unmarked): < 100 nM
4) CC(C)Nc1nc(Nc2ccnc(C(F)(F)F)c2)nc(C2=CC(O)CCC2)n1 (centres unmarked): < 100 nM
5) CC(C)Nc1nc(Nc2ccnc(C(F)(F)F)c2)nc(C2=CC(=O)NCC2)n1: 100 to 1000 nM
6) CC(C)Nc1nc(Nc2ccnc(C(F)(F)F)c2)nc(C2CCCC(O)C2)n1 (centres unmarked): < 100 nM
7) CC(C)Nc1nc(Nc2ccnc(C(F)(F)F)c2)nc(C2=CCCCC2)n1: < 100 nM
8) CC(C)Nc1nc(Nc2ccnc(C(F)(F)F)c2)nc(C2=CC(=O)CCC2)n1: < 100 nM
9) CC(C)Nc1nc(Nc2ccnc(C(F)(F)F)c2)nc(C2CCCCC2)n1: < 100 nM
10) CC1CCCC(c2nc(Nc3ccnc(C(F)(F)F)c3)nc(NC(C)C)n2)C1 (centres unmarked): 100 to 1000 nM
11) CC(C)Nc1nc(Nc2ccnc(C(F)(F)F)c2)nc(C2CCC2)n1: 100 to 1000 nM
